Target: T1, TNF receptor 1 Fc fusion protein (R&D Systems) (human, UniProt P19438 30-211, limits assumed)
T1 construct: bought; also called recombinant TNF receptor 1 (p55); TNFR1-Fc; not shown: Fc part of the bought fusion protein; not described
T1 sequence: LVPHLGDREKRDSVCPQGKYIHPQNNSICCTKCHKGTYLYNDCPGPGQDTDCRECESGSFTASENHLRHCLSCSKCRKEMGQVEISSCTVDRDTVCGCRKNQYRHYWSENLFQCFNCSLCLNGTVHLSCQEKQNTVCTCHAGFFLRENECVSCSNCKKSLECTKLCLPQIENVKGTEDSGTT
Test: receptor binding assay
recorded.metric: pIC50
When answering, recall that pIC50 equals minus log10 of the concentration in mol/L, and write that number alone.

1. TAR2h-44 (other, anti-human TNFR1 dAb) EVQLLESGGGLVQPGGSLRLSCAASGFTFLQYPMVWVRQAPGKGLEWVSSILAPGGPTYYADSVKGRFTISRDNSKNSLYLQMNSLRAEDTAVYYCAKHPTHTPHPNFDYWGQGTLVTVSS	8.00

Input TAR2h-27 (other, anti-human TNFR1 dAb) EVQLLESGGGLVQPGGSLRLSCAASGFTFTDYNMAWVRQAPGKGLEWVSFISQEGHHTYYADSVKGRFTISRDNSKNTLYLQMNSLRAEDTAVYYCAKFSTIATLSLFDYWGQGTLVTVSS , output reported pIC50. 7.52
